Every entry's value here was drawn from paper PMC10786891.

Molecular target: T1, EsCas13d, nuclease-dead (Eubacterium siraeum, UniProt B0MS50, R295A;H300A;R849A;H854A)
T1 sequence: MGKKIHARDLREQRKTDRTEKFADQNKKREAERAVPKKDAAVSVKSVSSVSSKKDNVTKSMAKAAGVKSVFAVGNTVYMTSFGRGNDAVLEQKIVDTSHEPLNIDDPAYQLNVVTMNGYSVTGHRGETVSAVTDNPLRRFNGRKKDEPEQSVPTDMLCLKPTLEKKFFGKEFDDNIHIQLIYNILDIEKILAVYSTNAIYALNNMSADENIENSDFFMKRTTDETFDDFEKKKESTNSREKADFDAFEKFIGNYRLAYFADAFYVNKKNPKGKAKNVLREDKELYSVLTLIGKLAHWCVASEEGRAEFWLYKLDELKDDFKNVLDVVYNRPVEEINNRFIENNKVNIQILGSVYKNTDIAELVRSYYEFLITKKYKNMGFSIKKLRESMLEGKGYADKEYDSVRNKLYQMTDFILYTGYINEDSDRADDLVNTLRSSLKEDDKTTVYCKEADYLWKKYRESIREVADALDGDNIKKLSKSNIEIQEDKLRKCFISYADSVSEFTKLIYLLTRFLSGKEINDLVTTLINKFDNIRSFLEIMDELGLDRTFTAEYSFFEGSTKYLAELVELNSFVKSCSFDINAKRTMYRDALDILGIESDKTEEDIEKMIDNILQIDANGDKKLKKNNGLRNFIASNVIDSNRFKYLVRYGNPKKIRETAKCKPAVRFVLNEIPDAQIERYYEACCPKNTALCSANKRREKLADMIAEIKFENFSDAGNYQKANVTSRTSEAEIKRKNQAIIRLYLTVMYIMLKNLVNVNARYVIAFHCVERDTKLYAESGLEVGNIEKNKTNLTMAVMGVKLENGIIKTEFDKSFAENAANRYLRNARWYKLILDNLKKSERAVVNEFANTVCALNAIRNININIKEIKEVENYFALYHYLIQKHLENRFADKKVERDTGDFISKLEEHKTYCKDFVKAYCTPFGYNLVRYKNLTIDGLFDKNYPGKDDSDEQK
Test: crRNA (strand 1, pre-loaded); Mg2+; 40 mM Tris-HCl pH 7.5, 150 mM NaCl, 6 mM MgCl2, 1 mM DTT, 0.1% Tween-20, 0.2 mg/ml BSA; 25 C; 10 min per concentration, then washed
Conditions: tags: His6-TwinStrep-SUMO cleaved; N-terminal SNAP kept (SNAP-Surface 488); label: 3' end held by stalled T7 RNA polymerase
# key: entry, value: pKd
Bear in mind: pKd is minus log10 of a mol/L concentration; give just that figure.

target 1 C4A,U19A (mixed) RNA 1: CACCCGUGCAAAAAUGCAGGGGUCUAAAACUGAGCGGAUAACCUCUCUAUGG RNA 2: GGGAAUGGAUCCACAUCUACGAAUUCGUACCAAAGAGAGGUUAUCCGAUCACCGAGAUCGGAAGAGCACACGU
7.17

Report pKd for target 1 insG 3' of 22,insA 3' of 5 (mixed) RNA 1: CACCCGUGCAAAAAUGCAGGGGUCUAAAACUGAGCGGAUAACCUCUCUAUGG RNA 2: GGGAAUGGAUCCACAUCUACGAAUUCGUACGCAUAGAGAGGUUAUCCGACUCACCGAGAUCGGAAGAGCACACGU please.
7.64

Name the reported pKd value associated with the binder target 1 insU 3' of 17,insU 3' of 6 (mixed) RNA 1: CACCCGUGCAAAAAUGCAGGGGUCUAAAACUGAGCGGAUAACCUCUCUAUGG RNA 2: GGGAAUGGAUCCACAUCUACGAAUUCGUACCAUAGUAGAGGUUAUCCUGCUCACCGAGAUCGGAAGAGCACACGU
7.53

Requested field: pKd. Item: target 1 MT 5'PFS GCG 3'PFS CGA (mixed) RNA 1: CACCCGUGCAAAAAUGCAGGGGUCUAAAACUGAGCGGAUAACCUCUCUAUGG RNA 2: GGGAAUGGAUCCACAUCUACGAAUUCGCGCCAUAGAGAGGUUAUCCGCUCACGAAGAUCGGAAGAGCACACGU
7.31
